Molecular target: Trypsin, Iodination grade, from human pancreas (human, UniProt P07477 24-247)
Assay: cell-based or functional assay
measured-property: % inhibition at 100 µM (%)

binder: ICTKSDPPYCR (HELM PEPTIDE1{I.C.T.K.S.D.P.P.Y.C.R.[dP].P}$PEPTIDE1,PEPTIDE1,2:R3-10:R3|PEPTIDE1,PEPTIDE1,1:R1-13:R2$$$V2.0; SMILES CC[C@H](C)[C@@H]1NC(=O)[C@@H]2CCCN2C(=O)[C@H]2CCCN2C(=O)[C@H](CCCNC(=N)N)NC(=O)[C@@H]2CSSC[C@H](NC1=O)C(=O)N[C@@H]([C@@H](C)O)C(=O)N[C@@H](CCCCN)C(=O)N[C@@H](CO)C(=O)N[C@@H](CC(=O)O)C(=O)N1CCC[C@H]1C(=O)N1CCC[C@H]1C(=O)N[C@@H](Cc1ccc(O)cc1)C(=O)N2) [Example 18]
value-unit: %
val: 84
//
binder: XCTKSDPPICS (HELM PEPTIDE1{[Nle].C.T.K.S.D.P.P.I.C.S.[dP].P}$PEPTIDE1,PEPTIDE1,2:R3-10:R3|PEPTIDE1,PEPTIDE1,1:R1-13:R2$$$V2.0; SMILES CCCC[C@@H]1NC(=O)[C@@H]2CCCN2C(=O)[C@H]2CCCN2C(=O)[C@H](CO)NC(=O)[C@@H]2CSSC[C@H](NC1=O)C(=O)N[C@@H]([C@@H](C)O)C(=O)N[C@@H](CCCCN)C(=O)N[C@@H](CO)C(=O)N[C@@H](CC(=O)O)C(=O)N1CCC[C@H]1C(=O)N1CCC[C@H]1C(=O)N[C@@H]([C@@H](C)CC)C(=O)N2) [Example 10]
value-unit: %
val: 89.9
